- System: Klebsiella aerogenes
- test_details: Antibacterial activity against Enterobacter aerogenes R41 assessed as inhibition of bacterial growth measured after 16 to 20 hrs by two-fold serial microbroth dilution method
- Format: functional, organism-based
- details: time 16-20 hrs
The source made the active and inactive calls. The rule behind the calls is not given here.

{"molecule": "COc1c2c(cc3c1C(CC(=O)/C=C/C1=C(C)CCCC1(C)C)[N+](C)(C)CC3)OCO2.[I-] (centres undefined)", "Activity": "Active"}
{"molecule": "CCn1c(O)c(C(=O)CC2c3c(cc4c(c3OC)OCO4)CCN2C)c(=O)n(CC)c1=S (centres undefined)", "Activity": "inactive"}
{"molecule": "CCOc1ccc(/C=C/C(=O)CC2c3c(cc4c(c3OC)OCO4)CC[N+]2(C)C)cc1 (centres undefined)", "Activity": "inactive"}
{"molecule": "CCCc1ccc(C(=O)CC2c3c(cc4c(c3OC)OCO4)CC[N+]2(C)C)cc1.[I-] (centres undefined)", "Activity": "Active"}

---

- Tested on: Escherichia coli
- test_details: Antibacterial activity against Escherichia coli assessed as inhibition of bacterial growth measured after 16 to 20 hrs by two-fold serial microbroth dilution method
- Format: functional
- details: time 16-20 hrs
log10(MIC) by entry:
quantity_name: log10(MIC) (log10 of the value in µM)

{"molecule": "COc1c2c(cc3c1C(CC(=O)/C=C/C1CC=C(C)CC1C)[N+](C)(C)CC3)OCO2 (centres undefined)", "measured": 1.67}
{"molecule": "COc1c2c(cc3c1C(CC(=O)/C=C/C1C(C)=CCCC1(C)C)[N+](C)(C)CC3)OCO2 (centres undefined)", "measured": 1.35}
{"molecule": "COc1c2c(cc3c1C(CC(=O)c1ccc4c5c(cccc15)CC4)[N+](C)(C)CC3)OCO2 (centres undefined)", "measured": 1.09}
{"molecule": "COc1c2c(cc3c1C(CC(=O)c1c(O)n(C)c(=S)n(C)c1=O)N(C)CC3)OCO2 (centres undefined)", "measured": 2.06}
{"molecule": "COc1c2c(cc3c1C(CC(=O)/C=C/C1=C(C)CCCC1(C)C)[N+](C)(C)CC3)OCO2.[I-] (centres undefined)", "measured": 1.35}
{"molecule": "COc1c2c(cc3c1C(CC(=O)c1ccc(CC(C)C)cc1)[N+](C)(C)CC3)OCO2 (centres undefined)", "measured": 1.37}
{"molecule": "CCn1c(O)c(C(=O)CC2c3c(cc4c(c3OC)OCO4)CCN2C)c(=O)n(CC)c1=S (centres undefined)", "measured": 1.13}
{"molecule": "CCOc1ccc(/C=C/C(=O)CC2c3c(cc4c(c3OC)OCO4)CC[N+]2(C)C)cc1 (centres undefined)", "measured": 1.96}
{"molecule": "CCCc1ccc(C(=O)CC2c3c(cc4c(c3OC)OCO4)CC[N+]2(C)C)cc1.[I-] (centres undefined)", "measured": 1.05}

---

- test_details: Selectivity index, ratio of CC50 for human HEK293 cells to MIC for antibacterial activity against Escherichia coli
- Format: toxicity
- details: read-out: Selectivity Index

{"compound": "CCn1c(O)c(C(=O)CC2c3c(cc4c(c3OC)OCO4)CCN2C)c(=O)n(CC)c1=S (stereo unspecified)", "selectivity ratio": 5.5}

---

- System: Klebsiella aerogenes
- test_details: Antibacterial activity against Enterobacter aerogenes R41 assessed as inhibition of bacterial growth measured after 16 to 20 hrs by two-fold serial microbroth dilution method
- Type: functional, organism-based
- details: time 16-20 hrs
Calls of active or inactive are those of the source. The calls are words filed in the database; no cut-off is given here.
Outcomes: true (1) (active), false (0) (inactive)

{"compound": "COc1c2c(cc3c1C(CC(=O)/C=C/C1CC=C(C)CC1C)[N+](C)(C)CC3)OCO2 (stereo not given)", "classification": "false (0)"}
{"compound": "COc1c2c(cc3c1C(CC(=O)/C=C/C1C(C)=CCCC1(C)C)[N+](C)(C)CC3)OCO2 (stereo not given)", "classification": "false (0)"}
{"compound": "COc1c2c(cc3c1C(CC(=O)c1ccc(CC(C)C)cc1)[N+](C)(C)CC3)OCO2 (stereo not given)", "classification": "true (1)"}
{"compound": "COc1c2c(cc3c1C(CC(=O)c1ccc4c5c(cccc15)CC4)[N+](C)(C)CC3)OCO2 (stereo not given)", "classification": "false (0)"}
{"compound": "COc1c2c(cc3c1C(CC(=O)c1c(O)n(C)c(=S)n(C)c1=O)N(C)CC3)OCO2 (stereo not given)", "classification": "false (0)"}
